# experimental protocol: NCI Yeast Anticancer Drug Screen. Data for the sgs1 mgt1 strain (AID 161)
# condition details: S. cerevisiae sgs1 mgt1 strain, at 50.0 µM
Compounds without any hit were thinned out: in the full panel of roughly 79,000, 15% have a hit. Activity calls are given as the source filed them. Rule as the data show it: active = growth inhibition above about 70%; inactive = the rest.
Outcomes you can answer with include only these: active, inactive

Here are 2 compounds together with their reported answers.
# test smiles, assigned class
measured = [
    ("Cc1cccc2c1C(=O)N(CC[P+](c1ccccc1)(c1ccccc1)c1ccccc1)C2=O", "inactive"),
    ("CC(C)=NNc1ncnc2nc[nH]c12", "inactive"),
]

Problem: // param item: CCNC1(C2c3ccccc3-c3ccccc32)c2ccccc2-c2ccccc21 ; yields the recorded call
Result: inactive

Problem: // param item: O=[n+]1c2c(n([O-])c3ccc4ccccc4c31)-c1cccc3cccc-2c13 ; yields the recorded call
Result: inactive

Problem: // param item: Nc1ccccc1-c1nc2c(ccc3ccccc32)[nH]1 ; yields the recorded call
Result: active

Problem: // param item: CCN1C2=NCCN2S(=O)(=O)c2ccccc21 ; yields the recorded call
Result: inactive
